B1: TPR 5TU (parent)
chain: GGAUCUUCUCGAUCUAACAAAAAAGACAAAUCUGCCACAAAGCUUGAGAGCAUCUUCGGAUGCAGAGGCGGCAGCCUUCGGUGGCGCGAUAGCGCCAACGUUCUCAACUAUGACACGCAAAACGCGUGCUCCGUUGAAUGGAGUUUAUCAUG

- Variants of: B1
- ASSAY_NAME: polymerase ribozyme fitness, log enrichment relative to wild type (log ratio); higher = more active; in vitro selection for triplet polymerase activity
Fewer inactive variants are shown than the library holds.
Each entry gets FALSE if its polymerase ribozyme fitness (log ratio) stays under -2, and TRUE if its polymerase ribozyme fitness (log ratio) is -2 or above.

alteration="A19C A29C U33G C87G C108U U135A U148A" assigned_category=FALSE
alteration="C51A C85U" assigned_category=TRUE
alteration="G70U A119C" assigned_category=FALSE
alteration="C79U C93A" assigned_category=FALSE
alteration="A37U G42A C85A A138G" assigned_category=FALSE
alteration="U44G U134C" assigned_category=FALSE
alteration="G25C C35U G74C C75A U148G" assigned_category=FALSE
alteration="G67C G86C C96A G112U A113U G126U" assigned_category=FALSE
alteration="A24U G94A" assigned_category=TRUE
alteration="U15A C57U C63A G68A C87U A122U" assigned_category=FALSE
alteration="G92C A142U" assigned_category=FALSE
alteration="C95U C96A C99U C108U" assigned_category=FALSE
alteration="C63G U102G C105U" assigned_category=FALSE
alteration="A22C G92C U101G C108A A120U" assigned_category=FALSE
alteration="A40C C125A" assigned_category=TRUE
alteration="C87U C132G" assigned_category=FALSE
alteration="A3U G59C C85U G126A" assigned_category=TRUE
alteration="C38G G58C G84A A119U" assigned_category=TRUE
alteration="G74U G88A A119U C125U" assigned_category=FALSE
alteration="C14A C38A G42C U56G G67C G84A C108U U127C" assigned_category=FALSE
alteration="A49G U55G C57U A60G C75G C76U U90A U102C U134G G140C" assigned_category=FALSE
